The measured values listed here are drawn from paper PMC5261807.

For each record, write down the corresponding binding score.
# target: T1, Bdf1 bromodomain 2 (GST-tagged, WT) (Saccharomyces cerevisiae (strain ATCC …, UniProt P35817))
# T1 chain: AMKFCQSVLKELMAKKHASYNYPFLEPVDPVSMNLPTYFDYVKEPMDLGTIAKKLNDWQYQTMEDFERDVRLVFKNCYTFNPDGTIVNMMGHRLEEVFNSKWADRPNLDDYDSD
# assayDetails: histone peptide array probed with recombinant GST-bromodomain, signal normalised to myc peptide control
Non-standard residues stand in square brackets, D forms with d. No end group written: not given here. Arg(Me2a) = CN(C)C(=N)NCCC[C@H](N)C(=O)O; Lys(Me3) = C[N+](C)(C)CCCC[C@H](N)C(=O)O; Me2a = asymmetric dimethyl (on Arg); Me2s = symmetric dimethyl (on Arg); pS = N[C@@H](COP(=O)(O)O)C(=O)O; Me3 = trimethyl (on Lys)

Value of measured binding score for the entry AR(Me2a)TK(Me)QTAR(Me2s)K(Me3)STGGKAPRKQ : 0

Value of measured binding score for the entry ARTKQTARKSTGGKAPRKQ (A R T Kme2 Q T A Rme2s Kme2 S T G G K A P R K Q) : 0.00325

Value of measured binding score for the entry ARTKQTA[Arg(Me2a)][Lys(Me3)][pS]TGGKAPRKQ : 0

Value of measured binding score for the entry PRKQLATKAARK(Ac)SAPATGG [H3 16-35] : 0.00915
